target: T1, CD16a/FCgRIIIa (F158 variant) on HEK293 cells, Terbium-labelled (UniProt P08637 17-254, limits assumed, Terbium donor dye); assay: HTRF competition vs IgG-d2 on HEK293 cells
T1 construct: whole, on cells; also called cellular CD16a
T1 sequence (P08637 17-254 limits assumed, change not shown): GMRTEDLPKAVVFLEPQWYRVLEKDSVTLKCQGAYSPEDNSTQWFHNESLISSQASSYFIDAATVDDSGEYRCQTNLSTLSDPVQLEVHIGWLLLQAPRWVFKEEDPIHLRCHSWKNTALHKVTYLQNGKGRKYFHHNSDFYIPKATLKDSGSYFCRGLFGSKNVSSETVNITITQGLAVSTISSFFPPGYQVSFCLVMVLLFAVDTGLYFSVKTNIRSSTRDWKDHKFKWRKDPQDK
pIC50: −log10 of the molar value. Numbered stars: 1 amine (or outer) side, 2 acyl side, 3 side chain; on linkers, the order of the positions; unused ones are H or OH. Bridge positions count the residues as written; N and C are the ends. Square brackets hold non-standard residues; d marks the D form. Primed or numbered codes have the meaning given here. Ends that are not written are not given here. TBMT(3) = 2,4,6-tris(bromomethyl)-s-triazine scaffold, C(c1nc(C[*:2])nc(C[*:3])n1)[*:1]; TBMT = 2,4,6-tris(bromomethyl)-s-triazine, C(c1nc(C[*:2])nc(C[*:3])n1)[*:1]; hPhe = N[C@@H](CCc1ccccc1)C(=O)O
Listed binders paired with reported pIC50

# binder, pIC50
data = [
    ("Ac-CRWH[hPhe]SEPCGAWC-NH2 (linker 1-9-13 via TBMT(3); SMILES CC(=O)N[C@H]1CSCc2nc3nc(n2)CSC[C@H](NC(=O)[C@@H]2CCCN2C(=O)[C@H](CCC(=O)O)NC(=O)[C@H](CO)NC(=O)[C@H](CCc2ccccc2)NC(=O)[C@H](Cc2c[nH]cn2)NC(=O)[C@H](Cc2c[nH]c4ccccc24)NC(=O)[C@H](CCCNC(=N)N)NC1=O)C(=O)NCC(=O)N[C@@H](C)C(=O)N[C@@H](Cc1c[nH]c2ccccc12)C(=O)N[C@H](C(N)=O)CSC3, scaffold TBMT) [BCY21694]", 6.78),
    ("ACRWSVEXPCGAWCA (CiRWSVE[Gla]PCiiGAWCiii, scaffold TBMT) [BCY16608]", 5.74),
    ("ACRWHXSEPCGAWCA (CiRWH[Aze]SEPCiiGAWCiii, scaffold TBMT) [BCY20382]", 6.13),
    ("ACRWSVEDPCGAWCA-NH2 (linker 2-10-14 via TBMT; also: scaffold TATA, TATB or TBMT, scaffold TBMT) [BCY14950]", 5.69),
    ("ACRWHXSEXCGAWCA (CiRWH[HPhe]SE[Aze]CiiGAWCiii, scaffold TBMT) [BCY21689]", 5.91),
]
